The reported measurements were obtained from patent US20230125550A1.

- experimental-target: T1, recombinant human CD123-Fc (human, UniProt P26951 19-305)
- T1 construct: not shown: Fc part of CD123-Fc
- T1 sequence: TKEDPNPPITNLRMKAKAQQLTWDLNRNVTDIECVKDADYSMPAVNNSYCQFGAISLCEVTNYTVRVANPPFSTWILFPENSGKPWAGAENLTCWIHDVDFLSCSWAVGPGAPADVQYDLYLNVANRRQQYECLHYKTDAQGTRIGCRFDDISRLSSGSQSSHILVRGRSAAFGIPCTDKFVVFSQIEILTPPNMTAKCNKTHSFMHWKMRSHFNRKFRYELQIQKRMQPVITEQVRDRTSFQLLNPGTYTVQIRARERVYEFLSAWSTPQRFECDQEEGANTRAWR
- protocol-text: phage ELISA, captured CD123-Fc
Returns one of t or f; t when ELISA_avg is >= 4 ratio A450 target/IgG1-Fc.

Below are worked cases with known answers.
binder	group
SEQ ID NO: 539 (designed binder, D domain, on phage) MGSWSEFDSRLDAIAYRLFALGGSEAELAQFEWIIADFEEDLQMYKGKGNPEVEALFSEAYAIEIELNAYRHN	t
SEQ ID NO: 449 (designed binder, D domain, on phage) MGSWTYFKDDLADIKQWLEALGGSEAELAFFEIEIAEFEEELQEYKGKGNPEVEALRKEAAAIRDELQAYRHN	t

API: above_or_equal(metric=ELISA_avg, cutoff=4 ratio A450 target/IgG1-Fc) for item SEQ ID NO: 419 (designed binder, D domain, on phage) MGSWTEFNLRLDAIYGRLSALGGSEAELAAFEKEIAAFESELQAYKGKGNPEVEFLRAAAANIRVELQAYRHN
t

Entry SEQ ID NO: 510 (designed binder, D domain, on phage) MGSWFEFKDYLADIKWDLEALGGSEAELAIFEHDIAYFEHNLQQYKGKGNPEVEALRKEAAAIRDELQAYRHN : is its ELISA_avg no less than 4 ratio A450 target/IgG1-Fc?
f

Does ELISA_avg meet or surpass 4 ratio A450 target/IgG1-Fc for SEQ ID NO: 451 (designed binder, D domain, on phage) MGSWYWFKQDLAHIKSMLEALGGSEAELAWFEEDIADFESELQEYKGKGNPEVEALRKEAAAIRDELQAYRHN ?
f

# bool: ELISA_avg of SEQ ID NO: 526 (designed binder, D domain, on phage) MGSWAEFKHDLADIKRELEALGGSEAELAWFELSIAFFEDELQHYKGKGNPEVEALRKEAAAIRDELQAYRHN >= 4 ratio A450 target/IgG1-Fc
f

Exam item: decide whether the reported ELISA_avg for SEQ ID NO: 522 (designed binder, D domain, on phage) MGSWWDFKDWLAEIKHDLEALGGSEAELALFESEIADFEFGLQWYKGKGNPEVEALRKEAAAIRDELQAYRHN is at least 4 ratio A450 target/IgG1-Fc.
t
